Test system: L. amazonensis promastigotes
Test: Anti-promastigote assay (resazurin viability)
Conditions: Leishmania amazonensis, 48 h, read-out: IC50 L. amazonensis Promastigotes, 48 h, resazurin
Measurement label: pIC50
Give bare numbers, as −log10 of the molar value.

Items follow; give pIC50 for each.
1. N#C[Se]Cc1cc(=O)oc2cc(O)ccc12 [MRK-108]
2. COc1ccccc1[Se]c1c(-c2ccccc2)nc2cc(C)ccn12 [MRK-107]
3. Cc1ccn2c([Se]c3ccccc3)c(-c3ccccc3)nc2c1 [MRK-113]

[5.37, 4.56, 4.39]

Fill in pIC50 for each of the 5 compounds listed.
1. Cc1cn2c([Se]c3ccccc3)c(-c3ccccc3)nc2s1 [MRK-111]
2. CC(C)(C)c1cc(O)cc(C(C)(C)C)c1[Se]C#N [MRK-105]
3. Cc1ccc(-c2nnc([Se]c3ccccc3)o2)cc1 [MRK-103]
4. C[C@@H]1[C@H](O)[C@@H](C)/C=C/C=C/C=C/C=C/C=C/C=C/C=C/[C@H](O[C@@H]2O[C@H](C)[C@@H](O)[C@H](N)[C@@H]2O)C[C@@H]2O[C@](O)(C[C@@H](O)C[C@@H](O)[C@H](O)CC[C@@H](O)C[C@@H](O)CC(=O)O[C@H]1C)C[C@H](O)[C@H]2C(=O)O [ANFB, amphotericin B, reference compound]
5. Oc1ccc2ccccc2c1[Se]c1ccccc1 [MRK-102]

4.76
4.81
4.81
5.03
4.82

----------
Test: in vitro
Settings: mouse, J774A.1 macrophage cells
Measurement label: CC50 at 48 h (µM)
One number for each entry, in µM.

Sample C[C@@H]1[C@H](O)[C@@H](C)/C=C/C=C/C=C/C=C/C=C/C=C/C=C/[C@H](O[C@@H]2O[C@H](C)[C@@H](O)[C@H](N)[C@@H]2O)C[C@@H]2O[C@](O)(C[C@@H](O)C[C@@H](O)[C@H](O)CC[C@@H](O)C[C@@H](O)CC(=O)O[C@H]1C)C[C@H](O)[C@H]2C(=O)O [ANFB, amphotericin B, reference compound] ; CC50 at 48 h observed: 27.3

----------
Assay: in vitro
Settings: mouse, NIH/3T3 fibroblast cells
Measurement label: CC50 at 48 h (µM)
Give bare numbers, in µM.

Entry under test: C[C@@H]1[C@H](O)[C@@H](C)/C=C/C=C/C=C/C=C/C=C/C=C/C=C/[C@H](O[C@@H]2O[C@H](C)[C@@H](O)[C@H](N)[C@@H]2O)C[C@@H]2O[C@](O)(C[C@@H](O)C[C@@H](O)[C@H](O)CC[C@@H](O)C[C@@H](O)CC(=O)O[C@H]1C)C[C@H](O)[C@H]2C(=O)O [ANFB, amphotericin B, reference compound] . Its CC50 at 48 h was 19.3
